tested.system: Proteasome subunit beta type-10 (Homo sapiens)
Sequence (P40306 whole entry): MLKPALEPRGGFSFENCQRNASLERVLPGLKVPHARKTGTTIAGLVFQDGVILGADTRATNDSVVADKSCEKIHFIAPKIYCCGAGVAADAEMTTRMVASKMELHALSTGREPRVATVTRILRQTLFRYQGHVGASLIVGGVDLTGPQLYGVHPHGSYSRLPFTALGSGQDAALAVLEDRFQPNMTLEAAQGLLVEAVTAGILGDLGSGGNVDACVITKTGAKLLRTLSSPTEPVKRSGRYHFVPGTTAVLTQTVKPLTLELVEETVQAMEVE
experiment.description: Inhibition of proteasome subunit beta-2i in human RPMI8226 cells using BODIPY-epoxomicin by fluorescent densitometry
Assay type: cell-based, RPMI-8226
pIC50: −log10 of the molar value.
List of pIC50 values.
reported.endpoint: pIC50

INSERT INTO results (compound_smiles, measured) VALUES
  ('CC1=C(C(=O)N[C@H](C)C(=O)N[C@@H](Cc2c[nH]c3ccccc23)C(=O)N[C@@H](Cc2ccccc2)C(=O)[C@@]2(C)CO2)Cc2ccccc21', '< 4.00'),
  ('CC1=C(C(=O)N[C@H](C)C(=O)N[C@@H](Cc2c[nH]c3ccccc23)C(=O)N[C@@H](CC2CCCCC2)C(=O)[C@@]2(C)CO2)Cc2ccccc21', '< 4.00'),
  ('COc1ccc(C[C@H](NC(=O)[C@@H](C)NC(=O)C2=C(C)c3ccccc3C2)C(=O)N[C@@H](CC2CCCCC2)C(=O)[C@@]2(C)CO2)cc1', '< 4.00'),
  ('C[C@@H](NC(=O)CN1CCOCC1)C(=O)N[C@@H](Cc1c[nH]c2ccccc12)C(=O)N[C@@H](CC1CCCCC1)C(=O)[C@@]1(C)CO1', '< 5.00'),
  ('CC1=C(C(=O)N[C@H](C)C(=O)N[C@@H](Cc2c[nH]c3ccccc23)C(=O)N[C@H](/C=C/S(C)(=O)=O)Cc2ccccc2)Cc2ccccc21', '< 4.00');
